target: recombinant homotrimeric HA A/Egypt/3300-NAMRU3/08 H5N1 (Influenza A virus A/Egypt/3300-NAMRU3/2008(H5N1)); experiment: protein microarray, purified IgG, trimeric HA; conditions: remark: other sources report otherwise
readoutKind: Trimeric HA Binding: RLU (RLU)
API: value field is a number in RLU; no unit string.

Data request: What value of Trimeric HA Binding: RLU has been recorded for this entry: TCN-535 (5246_P19) (antibody, V domains shown) VH: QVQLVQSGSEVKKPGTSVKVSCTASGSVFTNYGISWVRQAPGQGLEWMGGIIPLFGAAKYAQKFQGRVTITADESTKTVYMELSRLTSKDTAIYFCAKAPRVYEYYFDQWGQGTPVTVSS VL: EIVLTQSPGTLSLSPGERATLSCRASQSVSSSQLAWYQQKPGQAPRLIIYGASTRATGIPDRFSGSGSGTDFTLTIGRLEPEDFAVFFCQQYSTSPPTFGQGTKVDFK
Data returned: 18100
